Provenance of the data: patent US4921850A

# Test system: Morganella morganii EP-14
# TEST: Anti-bacterial activity (MIC), agar dilution
# Format: cell-based
# TEST PARAMETERS: Morganella morganii, EP14, 18 h, about 10^6 CFU/ml, 37° C., read-out: MIC
READOUT: MIC

Sample records with MIC:
INSERT INTO measurements (compound, readout, measured_value) VALUES
  ('Nc1nc(/C(=N/OCF)C(=O)N[C@@H]2C(=O)N3C(C(=O)[O-])=C(/C=C/C[N+]45CCN(CC4)CC5)CS[C@H]23)ns1 [Example 129]', 'MIC', '≤ 0.025 µg/mL'),
  ('C[N+](C)(C/C=C/C1=C(C(=O)[O-])N2C(=O)[C@@H](NC(=O)/C(=N\OCF)c3nsc(N)n3)[C@H]2SC1)[C@H](CO)C(N)=O [Example 5]', 'MIC', '≤ 0.025 µg/mL'),
  ('N#CC[N+]1(C/C=C/C2=C(C(=O)[O-])N3C(=O)[C@@H](NC(=O)/C(=N\OCF)c4nsc(N)n4)[C@H]3SC2)CCCC1 [Example 14]', 'MIC', '≤ 0.025 µg/mL');

In plain terms, C[N+](C)(C/C=C/C1=C(C(=O)[O-])N2C(=O)[C@@H](NC(=O)/C(=N\OCF)c3nsc(N)n3)[C@H]2SC1)C(CO)CO [Example 95] has a documented MIC of ≤ 0.025 µg/mL

---

# Test system: Staph. aureus 209-P
# TEST: Anti-bacterial activity (MIC), agar dilution
# Assay type: cell-based
# TEST PARAMETERS: Staphylococcus aureus, 209P, 18 h, Staph. aureus 209-P; agar dilution, about 10^6 CFU/ml, 18 hours, 37° C.; read-out: MIC
READOUT: MIC (µg/mL)
Please give a number only; it is taken to be in µg/mL.

Some entries whose results are on file:
INSERT INTO results (molecule, unit_name, measured_value) VALUES
  ('N#CCO/N=C(\C(=O)N[C@@H]1C(=O)N2C(C(=O)[O-])=C(/C=C/C[N+]34CCN(CC3)CC4)CS[C@H]12)c1nsc(N)n1', 'µg/mL', 0.4),
  ('Nc1nc(/C(=N/OCF)C(=O)N[C@@H]2C(=O)N3C(C(=O)[O-])=C(/C=C/C[N+]4(CCO)CCN(S(N)(=O)=O)CC4)CS[C@H]23)ns1', 'µg/mL', 0.4),
  ('C[N+](C)(C/C=C/C1=C(C(=O)[O-])N2C(=O)[C@@H](NC(=O)/C(=N\OCF)c3nsc(N)n3)[C@H]2SC1)[C@H](CC(N)=O)C(N)=O', 'µg/mL', 0.4),
  ('C[N+]1(C/C=C/C2=C(C(=O)[O-])N3C(=O)[C@@H](NC(=O)/C(=N\OCF)c4nsc(N)n4)[C@H]3SC2)CCCN(C(N)=O)CC1 (stereo partly drawn)', 'µg/mL', 0.2),
  ('N#CC[N+]1(C/C=C/C2=C(C(=O)[O-])N3C(=O)[C@@H](NC(=O)/C(=N\OCF)c4nsc(N)n4)[C@H]3SC2)CCCC1', 'µg/mL', 0.2),
  ('C[N+]1(C/C=C/C2=C(C(=O)[O-])N3C(=O)[C@@H](NC(=O)/C(=N\OCF)c4nsc(N)n4)[C@H]3SC2)CCCC1', 'µg/mL', 0.1),
  ('C[N+](C)(C/C=C/C1=C(C(=O)[O-])N2C(=O)[C@@H](NC(=O)/C(=N\OC(F)F)c3nsc(N)n3)[C@H]2SC1)CC(N)=O', 'µg/mL', 0.2),
  ('Nc1nc(/C(=N/OC(F)F)C(=O)N[C@@H]2C(=O)N3C(C(=O)[O-])=C(/C=C/C[n+]4ccc(C(=O)O)cc4)CS[C@H]23)ns1', 'µg/mL', 0.8),
  ('CC(O)C[N+](C)(C)CC=CC1=C(C(=O)[O-])N2C(=O)C(NC(=O)C(=NOCF)c3nsc(N)n3)C2SC1 (stereo not drawn)', 'µg/mL', 0.4),
  ('C[N+](C)(C/C=C/C1=C(C(=O)[O-])N2C(=O)[C@@H](NC(=O)/C(=N\OCF)c3nsc(N)n3)[C@H]2SC1)CC(=O)NO', 'µg/mL', 0.4);

Test item C[N+](C)(C/C=C/C1=C(C(=O)[O-])N2C(=O)[C@@H](NC(=O)/C(=N\OCF)c3nsc(N)n3)[C@H]2SC1)CC(=O)NCO ; Staph. aureus 209-P; reported MIC was 0.2

// MIC (Staph. aureus 209-P) for C[N+](C)(C/C=C/C1=C(C(=O)[O-])N2C(=O)[C@@H](NC(=O)/C(=N\OCF)c3nsc(N)n3)[C@H]2SC1)CC(O)CO (stereo partly drawn) = 0.2

---

# System: Staph. aureus 209-P
# TEST: Anti-bacterial activity (MIC), agar dilution
# Format: cell-based
# TEST PARAMETERS: Staphylococcus aureus, 209P, 18 h, Staph. aureus 209-P; agar dilution, about 10^6 CFU/ml, 18 hours, 37° C.; read-out: MIC
READOUT: MIC (µg/mL)
Entry rule: numbers only, all in µg/mL.

INSERT INTO assay_data (compound, study_target, readout, unit_name, measured_value) VALUES
  ('C[N+]1(C/C=C/C2=C(C(=O)[O-])N3C(=O)[C@@H](NC(=O)/C(=N\OCF)c4nsc(N)n4)[C@H]3SC2)C[C@H](O)C[C@@H]1CO (single isomer, unassigned) [Example 6-1]', 'Staph. aureus 209-P', 'MIC', 'µg/mL', 0.2),
  ('Nc1nc(/C(=N/OCF)C(=O)N[C@@H]2C(=O)N3C(C(=O)[O-])=C(/C=C/C[N+]4(CCO)CCC(O)C4)CS[C@H]23)ns1 (stereo partly drawn) [Example 15-1]', 'Staph. aureus 209-P', 'MIC', 'µg/mL', 0.4),
  ('NC(=O)C[N+]1(C/C=C/C2=C(C(=O)[O-])N3C(=O)[C@@H](NC(=O)/C(=N\OCF)c4nsc(N)n4)[C@H]3SC2)CCC(O)C1 (stereo partly drawn) [Example 9-1]', 'Staph. aureus 209-P', 'MIC', 'µg/mL', 0.4),
  ('Nc1nc(/C(=N/OCF)C(=O)N[C@@H]2C(=O)N3C(C(=O)[O-])=C(/C=C/C[n+]4ccc(C(=O)N5CCOCC5)cc4)CS[C@H]23)ns1 [Example 108]', 'Staph. aureus 209-P', 'MIC', 'µg/mL', 0.4),
  ('CN(C)C(=O)C[N+](C)(C)C/C=C/C1=C(C(=O)[O-])N2C(=O)[C@@H](NC(=O)/C(=N\OCF)c3nsc(N)n3)[C@H]2SC1 [Example 56]', 'Staph. aureus 209-P', 'MIC', 'µg/mL', 0.4);

# next compound below
# compound C[N+](C/C=C/C1=C(C(=O)[O-])N2C(=O)[C@@H](NC(=O)/C(=N\OCF)c3nsc(N)n3)[C@H]2SC1)(CCO)CCO [Example 144] ; its MIC = 0.2

---

// reported MIC per item
# Test system: Ser. marcescens ES-75
# TEST: Anti-bacterial activity (MIC), agar dilution
# Format: cell-based
# TEST PARAMETERS: Serratia marcescens, ES75, 18 h, Ser. marcescens ES-75; agar dilution, about 10^6 CFU/ml, 18 hours, 37° C.; read-out: MIC
# unit: µg/mL | format: bare number

Example entries and their recorded answers appear below.
INSERT INTO measurements (molecule, readout, unit_name, measured_value) VALUES
  ('Nc1nc(/C(=N/OCF)C(=O)N[C@@H]2C(=O)N3C(C(=O)[O-])=C(/C=C/C[n+]4ccc(C(=O)N(CCO)CCO)cc4)CS[C@H]23)ns1 [Example 83]', 'MIC', 'µg/mL', 0.1),
  ('CN(C)CCC[N+](C)(C)C/C=C/C1=C(C(=O)[O-])N2C(=O)[C@@H](NC(=O)/C(=N\OCF)c3nsc(N)n3)[C@H]2SC1 [Example 77]', 'MIC', 'µg/mL', 0.2),
  ('Nc1nc(/C(=N/OCF)C(=O)N[C@@H]2C(=O)N3C(C(=O)[O-])=C(/C=C/C[N+]4(CCO)CCN(S(N)(=O)=O)CC4)CS[C@H]23)ns1 [Example 29]', 'MIC', 'µg/mL', 0.1),
  ('CN(C)C(=O)C[N+](C)(C)C/C=C/C1=C(C(=O)[O-])N2C(=O)[C@@H](NC(=O)/C(=N\OCF)c3nsc(N)n3)[C@H]2SC1 [Example 56]', 'MIC', 'µg/mL', 0.1);

Shifting focus to the molecule that follows.
Looking up Nc1nc(/C(=N/OCF)C(=O)N[C@@H]2C(=O)N3C(C(=O)[O-])=C(/C=C/C[n+]4ccc(C(=O)N5CCOCC5)cc4)CS[C@H]23)ns1 [Example 108] , I see its MIC listed as 0.1

---

# Tested on: Kleb. pneumoniae EK-6
# TEST: Anti-bacterial activity (MIC), agar dilution
# Assay type: cell-based
# TEST PARAMETERS: Klebsiella pneumoniae, EK6, 18 h, Kleb. pneumoniae EK-6; agar dilution, about 10^6 CFU/ml, 18 hours, 37° C.; read-out: MIC
READOUT: MIC

INSERT INTO measurements (compound, measured_value) VALUES
  ('CN(C)C(=O)C[N+](C)(C)C/C=C/C1=C(C(=O)[O-])N2C(=O)[C@@H](NC(=O)/C(=N\OCF)c3nsc(N)n3)[C@H]2SC1 [Example 56]', '0.05 µg/mL'),
  ('NC(=O)NCC[N+]1(C/C=C/C2=C(C(=O)[O-])N3C(=O)[C@@H](NC(=O)/C(=N\OCF)c4nsc(N)n4)[C@H]3SC2)CCN(C(N)=O)CC1 [Example 32]', '≤ 0.025 µg/mL'),
  ('Nc1nc(/C(=N/OCF)C(=O)N[C@@H]2C(=O)N3C(C(=O)[O-])=C(/C=C/C[N+]4(CCO)CCN(CCO)CC4)CS[C@H]23)ns1 [Example 27]', '≤ 0.025 µg/mL'),
  ('CC(C(N)=O)[N+]1(C/C=C/C2=C(C(=O)[O-])N3C(=O)[C@@H](NC(=O)/C(=N\OCF)c4nsc(N)n4)[C@H]3SC2)CCCC1 (single isomer, unassigned) [Example 13-1]', '≤ 0.025 µg/mL'),
  ('CC(C)(CO)[N+](C)(C)C/C=C/C1=C(C(=O)[O-])N2C(=O)[C@@H](NC(=O)/C(=N\OCF)c3nsc(N)n3)[C@H]2SC1 [Example 69]', '≤ 0.025 µg/mL');

Lab note: NC(=O)c1cc[n+](C/C=C/C2=C(C(=O)[O-])N3C(=O)[C@@H](NC(=O)/C(=N\OCF)c4nsc(N)n4)[C@H]3SC2)cc1 [Example 127] gave MIC of ≤ 0.025 µg/mL

In plain terms, Nc1nc(/C(=N/OCF)C(=O)N[C@@H]2C(=O)N3C(C(=O)[O-])=C(/C=C/C[n+]4ccc(C(=O)N5CCOCC5)cc4)CS[C@H]23)ns1 [Example 108] has a documented MIC of ≤ 0.025 µg/mL

Per the record, CN(C)CC(O)C[N+](C)(C)C/C=C/C1=C(C(=O)[O-])N2C(=O)[C@@H](NC(=O)/C(=N\OCF)c3nsc(N)n3)[C@H]2SC1 (stereo partly drawn) [Example 78] has MIC of 0.2 µg/mL

Short answer for C[C@@H](CO)[N+](C)(C)C/C=C/C1=C(C(=O)[O-])N2C(=O)[C@@H](NC(=O)/C(=N\OCC#N)c3nsc(N)n3)[C@H]2SC1 [Example 148] : MIC was 0.05 µg/mL

// MIC value for N#CC[N+]1(C/C=C/C2=C(C(=O)[O-])N3C(=O)[C@@H](NC(=O)/C(=N\OCF)c4nsc(N)n4)[C@H]3SC2)CCCC1 [Example 14] : ≤ 0.025 µg/mL

Reported MIC for Nc1nc(/C(=N/OC(F)F)C(=O)N[C@@H]2C(=O)N3C(C(=O)[O-])=C(/C=C/C[N+](CCO)(CCO)CCO)CS[C@H]23)ns1 [Example 117] was 0.05 µg/mL

Entry Nc1nc(/C(=N/OCF)C(=O)N[C@@H]2C(=O)N3C(C(=O)[O-])=C(/C=C/C[N+]4(CCO)CCC(O)CC4)CS[C@H]23)ns1 (stereo partly drawn) [Example 91] ; MIC = ≤ 0.025 µg/mL
